Recorded values, source patent EP1619246A1.

Biological target: SARS CoV nsp8 RNA dependent RNA polymerase, N-terminally His-tagged (SARS-CoV replicase residues 3920-4117), SEQ ID NO. 1 (Severe acute respiratory syndrome coronavirus)
Experiment: biochemical
Assay type: biochemical
Measurement Kind: IC50

1) Nc1nc2c(ncn2[C@@H]2O[C@H](COP(=O)(O)OP(=O)(O)OP(=O)(O)O)C[C@H]2O)c(=O)[nH]1	~80 nM
